# Test system: CCRIS mutagenicity, Ames/micronucleus/aberration tests
# EXPERIMENT_DESCRIPTION: CCRIS mutagenicity studies
# MEASUREMENT_CONDITIONS: Test System: AMES SALMONELLA TYPHIMURIUM; Strain/Indicator: TA1535; Metabolic Activation: NONE; Method: STANDARD PLATE
Calls of active or inactive are those of the source. No rule for the calls is given here.
Thanks in advance; please answer with one of these: 1 (yes) (active), 0 (no) (inactive)

-- ask Which result was noted for this molecule in the test: `O=[N+]([O-])c1cc(Cl)cc(Sc2cc(Cl)cc([N+](=O)[O-])c2O)c1O`
-- reply 0 (no)

-- ask Which result was noted for this molecule in the test: `C1CC[C@H]2O[C@H]2C1`
-- reply 1 (yes)

-- ask Which result was noted for this molecule in the test: `O=C(O)C(Cl)Cl`
-- reply 0 (no)

-- ask Which result was noted for this molecule in the test: `CCO[Si](OCC)(OCC)OCC`
-- reply 0 (no)

-- ask Which result was noted for this molecule in the test: `O=C1c2ccc3nc(-c4ccccc4)sc3c2C(=O)c2ccc3nc(-c4ccccc4)sc3c21`
-- reply 0 (no)

-- ask Which result was noted for this molecule in the test: `C=CC(=O)OCCCCC`
-- reply 0 (no)

-- ask Which result was noted for this molecule in the test: CC(CN1CC(=O)NC(=O)C1)N1CC(=O)NC(=O)C1 (centres undefined)
-- reply 0 (no)

-- ask Which result was noted for this molecule in the test: `CN(CCO)C(=O)Nc1ccc(Cl)c(Cl)c1`
-- reply 0 (no)

-- ask Which result was noted for this molecule in the test: `COc1cccc2c1C(=O)c1c(O)c3c(c(O)c1C2=O)C[C@@](O)(C(=O)CO)C[C@@H]3O[C@H]1C[C@H](N)[C@H](O)[C@H](C)O1`
-- reply 0 (no)

-- ask Which result was noted for this molecule in the test: `CC(=O)O[C@]1(C(C)=O)CC[C@H]2[C@@H]3C[C@H](C)C4=CC(=O)CC[C@]4(C)[C@H]3CC[C@@]21C`
-- reply 0 (no)

-- ask Which result was noted for this molecule in the test: `O.O.O.O=C([O-])[C@H]([O-])[C@@H]([O-])C(=O)[O-].O=C([O-])[C@H]([O-])[C@@H]([O-])C(=O)[O-].[K+].[K+].[Sb+3].[Sb+3]`
-- reply 0 (no)

-- ask Which result was noted for this molecule in the test: `O=c1c(Cl)c(Cl)cnn1S(=O)(=O)c1ccc([N+](=O)[O-])cc1`
-- reply 0 (no)

-- ask Which result was noted for this molecule in the test: `Cc1cc(C)c(N)c(C)c1N`
-- reply 1 (yes)

-- ask Which result was noted for this molecule in the test: `O=C(O)c1nn(Cc2ccc(Cl)cc2Cl)c2ccccc12`
-- reply 0 (no)

-- ask Which result was noted for this molecule in the test: `Nc1nc(Cl)cc(Cl)n1`
-- reply 0 (no)

-- ask Which result was noted for this molecule in the test: `CC[C@H](C)[C@@H]([C@@H](CC(=O)N1CCC[C@H]1[C@H](OC)[C@@H](C)C(=O)N[C@@H](Cc1ccccc1)c1nccs1)OC)N(C)C(=O)[C@@H](NC(=O)[C@H](C(C)C)N(C)C)C(C)C`
-- reply 0 (no)

-- ask Which result was noted for this molecule in the test: O=C1c2c(O)ccc(O)c2C(=O)C2C(O)=CC=C(O)C12 (centres undefined)
-- reply 0 (no)

-- ask Which result was noted for this molecule in the test: `COc1c(N)cc(C)c(N)c1C`
-- reply 0 (no)

-- ask Which result was noted for this molecule in the test: `O=C(CCl)NCO`
-- reply 0 (no)

-- ask Which result was noted for this molecule in the test: `NC(=O)c1cc[n+](COC[n+]2ccccc2/C=N/O)cc1`
-- reply 0 (no)

-- ask Which result was noted for this molecule in the test: Cn1c([N+](=O)[O-])cnc1C(O)c1cc(C(C)(C)C)cc(C(C)(C)C)c1O (centres undefined)
-- reply 0 (no)

-- ask Which result was noted for this molecule in the test: `CCOP(=S)(OCC)SCSCC`
-- reply 0 (no)

-- ask Which result was noted for this molecule in the test: c1ccc(C2CO2)cc1 (centres undefined)
-- reply 1 (yes)

-- ask Which result was noted for this molecule in the test: `O=NN(CCCl)C(=O)NCCCl`
-- reply 1 (yes)

Sourced from PubChem BioAssay AID1259407
